Biological target: 5HT2C receptors (Homo sapiens, UniProt P28335)
Sequence (P28335 33-458): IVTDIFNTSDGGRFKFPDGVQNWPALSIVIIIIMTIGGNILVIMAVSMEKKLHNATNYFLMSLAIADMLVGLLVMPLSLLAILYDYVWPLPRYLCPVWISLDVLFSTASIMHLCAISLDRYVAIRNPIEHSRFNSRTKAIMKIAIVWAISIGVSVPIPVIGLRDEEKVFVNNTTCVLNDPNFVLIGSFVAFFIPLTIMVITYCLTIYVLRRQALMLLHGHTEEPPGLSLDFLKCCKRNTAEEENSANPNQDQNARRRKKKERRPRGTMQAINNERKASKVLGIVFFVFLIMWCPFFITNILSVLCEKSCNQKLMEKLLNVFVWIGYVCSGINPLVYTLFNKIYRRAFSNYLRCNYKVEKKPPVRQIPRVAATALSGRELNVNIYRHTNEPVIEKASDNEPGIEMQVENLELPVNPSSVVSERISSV
Experiment: Human 5-HT2C functional high throughput screening assay in CHO-K1 cells (calcium flux)
Assay type: cell-based
Design: expressed in transfected cells; host or cells: CHO-K1 cells
Conditions: EC50, 5-HT2C agonist activity; CHO-K1 cells; calcium flux
Protocol: (iii) Human 5-HT2C and 5-HT2B Functional High Throughput Screening Assays in CHO-K1 Cells […] After incubation, the cell plates were transferred to FLIPR™ (MDS) and their fluorescence measurements were read at an excitation wavelength of 480 nm and an emission wavelength of 530 nm at 25° C. The baseline fluorescence was measured for the first 10 seconds and then 15 μL of 4× concentration of serotonin/test compound was added to the cells. […]
Quantity measured: EC50 (nM)
Numbers only here, please. The scale is nM.

Asked: Find the recorded EC50 belonging to O=C1NC[C@H]2CNC[C@@H]2c2c(F)cc(F)cc21 [Example 106] and report it.
Given back: 0.4

Asked: Can you share its EC50? I mean this molecule: Clc1cccc2c1NCC[C@@H]1CNC[C@@H]21 (relative stereo) [Example 392]
Given back: 0.7

Asked: Any idea what its EC50 is? The molecule is Clc1cccc2c1OCC[C@H]1CNC[C@H]21 (relative stereo) [Example 376]
Given back: 0.2

Asked: Look at this molecule and give its reported EC50. c1ccc2c(c1)OCC[C@H]1CNC[C@@H]21 (relative stereo) [Example 96]
Given back: 200

###

Biological target: 5HT2C receptors (Homo sapiens, UniProt P28335)
Assay: Human 5-HT2C functional high throughput screening assay in CHO-K1 cells (calcium flux)
Format: cell-based
Parameters: expressed in transfected cells; host or cells: CHO-K1 cells
Settings: CHO-K1; 5-HT2C; maximum functional response as percentage relative to the effect of serotonin; read-out: Emax
Quantity measured: Emax (%)
Kindly provide the numeric value in % only, without the unit symbol.

Asked: Request: Emax, test system 5HT2C receptors (Homo sapiens, UniProt P28335), entry CN1C[C@H]2CNC(=O)c3cc(-c4ccc5c(c4)OCC5)ccc3[C@@H]2C1 (relative stereo)
Given back: 85

Asked: Value wanted: Emax (5HT2C receptors (Homo sapiens, UniProt P28335)) of entry O=S(=O)(c1ccc(Cl)c(Cl)c1)N1Cc2cccnc2[C@@H]2CNC[C@H]2C1 (relative stereo)
Given back: 90

Asked: Lab request: please report Emax under test system 5HT2C receptors (Homo sapiens, UniProt P28335) for CN1C[C@H]2CNC(=O)c3cc(-c4cccc(C(C)(O)C(F)(F)F)c4)ccc3[C@@H]2C1 (relative stereo)
Given back: 120

Asked: State its Emax on 5HT2C receptors (Homo sapiens, UniProt P28335): CNC(=O)c1ccc(-c2cccc3c2OCC[C@H]2CNC[C@H]32)cc1 (relative stereo)
Given back: 95

Asked: Reported Emax for 5HT2C receptors (Homo sapiens, UniProt P28335), given CN1C[C@H]2CNC(=O)c3cc(-c4ccccc4S(C)(=O)=O)ccc3[C@@H]2C1 (relative stereo) ?
Given back: 30

Asked: Given the entry CNC(=O)c1cccc(-c2ccc3c(c2)C(=O)NC[C@@H]2CN(C)C[C@@H]32)c1 (relative stereo) , what Emax was observed with 5HT2C receptors (Homo sapiens, UniProt P28335)?
Given back: 100

Asked: Provide the documented Emax with 5HT2C receptors (Homo sapiens, UniProt P28335) as the system for c1ccc(-c2cccc3c2OCC[C@H]2CNC[C@H]32)cc1 (relative stereo)
Given back: 95

Asked: Give the reported Emax for COc1cccc(CCOc2ccc3c(c2)C(=O)NC[C@@H]2CNC[C@@H]32)c1 (relative stereo) (system: 5HT2C receptors (Homo sapiens, UniProt P28335)).
Given back: 110
